Recorded values, source ChEMBL document CHEMBL4673352.

assayed_target: CDK7/Cyclin H/MNAT1 (Homo sapiens, UniProt P50613)
Sequence (P51946 whole entry): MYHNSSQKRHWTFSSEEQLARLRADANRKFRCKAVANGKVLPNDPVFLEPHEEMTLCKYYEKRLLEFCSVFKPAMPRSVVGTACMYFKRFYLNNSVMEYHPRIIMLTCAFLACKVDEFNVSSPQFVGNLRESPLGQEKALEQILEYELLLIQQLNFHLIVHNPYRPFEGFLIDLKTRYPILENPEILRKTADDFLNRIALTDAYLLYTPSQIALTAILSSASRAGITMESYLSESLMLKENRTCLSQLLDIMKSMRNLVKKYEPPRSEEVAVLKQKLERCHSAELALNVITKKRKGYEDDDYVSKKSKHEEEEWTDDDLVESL
Sequence (P50613 whole entry): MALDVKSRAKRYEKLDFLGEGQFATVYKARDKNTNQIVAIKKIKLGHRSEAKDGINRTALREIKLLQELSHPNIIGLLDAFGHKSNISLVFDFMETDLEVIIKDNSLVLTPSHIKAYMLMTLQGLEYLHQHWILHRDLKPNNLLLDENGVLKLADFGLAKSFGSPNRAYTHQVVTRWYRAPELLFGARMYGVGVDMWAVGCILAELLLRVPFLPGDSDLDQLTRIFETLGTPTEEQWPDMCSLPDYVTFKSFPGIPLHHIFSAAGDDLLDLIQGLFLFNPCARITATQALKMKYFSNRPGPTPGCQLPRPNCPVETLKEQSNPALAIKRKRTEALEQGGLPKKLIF
Sequence (P51948 whole entry, further chain): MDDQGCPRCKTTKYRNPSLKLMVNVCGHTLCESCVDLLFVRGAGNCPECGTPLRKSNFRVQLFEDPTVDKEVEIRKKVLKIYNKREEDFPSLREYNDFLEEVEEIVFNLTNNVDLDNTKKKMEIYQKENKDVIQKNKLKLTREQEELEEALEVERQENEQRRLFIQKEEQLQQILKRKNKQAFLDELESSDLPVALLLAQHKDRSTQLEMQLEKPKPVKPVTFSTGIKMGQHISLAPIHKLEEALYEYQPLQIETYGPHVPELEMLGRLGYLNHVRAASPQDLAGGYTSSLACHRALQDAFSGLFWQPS
method_description: Inhibition of recombinant full length human CDK7/cyclinH1/MAT1 expressed in insect cells using 5FAM-YSPTSPSYSPTSPSYSPTSPSKKKK-NH2 as substrate preincubated for 10 mins followed by MgCl2 addition and measured after 120 mins in presence of 5 mM ATP by mobility shift assay
Provide the recorded pIC50 for the entries that follow.
// pIC50 is dimensionless: -log10 of concentration (M)

Asked: Look up pIC50: CC(=O)N[C@@H]1CCC[C@H](C(=O)Nc2cc(-c3cnn4c3CC(C)(C)C4)c(Cl)cn2)C1 [ZEMIRCICLIB]
Given back: 5.86

Asked: Which pIC50 is reported for this compound? CC(=O)N[C@@H]1CCC[C@H](C(=O)Nc2cc(-c3cnn4c3CC(C)(C)C4)c(F)cn2)C1
Given back: 6.26

Asked: What value of pIC50 has been recorded for this entry: CC(=O)N[C@@H]1CCC[C@H](C(=O)Nc2cc(-c3cnn4c3CCCC4)c(Cl)cn2)C1
Given back: 5.23

* * *

method_description: Volume of distribution at steady state in mouse at 2.3 umol/kg, iv formulated as solution
Type: ADME, organism-based
measurement_parameters: in vivo, dose 2.3 µmol/kg, read-out: Vdss
measure: Vd
Please don't drop the unit; write it after the number.

Asked: Could you share which Vd value was measured for CC(=O)N[C@@H]1CCC[C@H](C(=O)Nc2cc(-c3cnn4c3CC(C)(C)C4)c(Cl)cn2)C1 ?
Given back: 0.45 L/kg

* * *

method_description: Intrinsic clearance in rat cryopreserved hepatocytes assessed per million cells […]
Type: ADME, cell-based, Hepatocyte
measurement_parameters: cryopreserved hepatocytes, read-out: CLH
measure: hepatocyte CLint
Give the value; after it, write the unit.

Asked: What measured hepatocyte CLint goes with CC(=O)N[C@@H]1CC[C@H](C(=O)Nc2cc(-c3cnn4c3CC(C)(C)C4)c(Cl)cn2)C1 ?
Given back: 97 µL/min/1e6 cells

Asked: Returns the measured hepatocyte CLint for the input molecule. Input: CC(=O)N[C@@H]1CCC[C@H](C(=O)Nc2cc(-c3cnn4c3CC(C)C4)c(Cl)cn2)C1 (stereo in doubt; 28)
Given back: 97 µL/min/1e6 cells

Asked: Which hepatocyte CLint value is on record for CC(=O)N[C@@H]1CCC[C@H](C(=O)Nc2cc(-c3cnn(C)c3C)c(Cl)cn2)C1 ?
Given back: 10 µL/min/1e6 cells

Asked: Give its hepatocyte CLint value. Item: COc1cc(F)ccc1-c1ccnc(NC(=O)[C@H]2CCC[C@@H](NC(C)=O)C2)c1
Given back: 58 µL/min/1e6 cells

Asked: Looking for the measured hepatocyte CLint of CC(=O)N[C@@H]1CCC[C@H](C(=O)Nc2cc(-c3cnc4n3CCCC4)c(Cl)cn2)C1 , can you help?
Given back: 12 µL/min/1e6 cells

Asked: Dear colleague, I am looking for the recorded hepatocyte CLint of the following molecule: CC(=O)N[C@@H]1CCC[C@H](C(=O)Nc2cc(-c3cnc(C)n3C(C)C)ccn2)C1
Given back: 7.4 µL/min/1e6 cells

Asked: hepatocyte CLint for CC(=O)N[C@@H]1CCC[C@H](C(=O)Nc2cc(-c3cnc4n3CCC4)c(Cl)cn2)C1 ?
Given back: 19 µL/min/1e6 cells

Asked: Looking for the measured hepatocyte CLint of CC1(C)Cc2c(-c3cc(NC(=O)[C@H]4C[C@@H](O)C4)ncc3Cl)cnn2C1 , can you help?
Given back: 157 µL/min/1e6 cells

Asked: Need hepatocyte CLint of CC(=O)N[C@@H]1CCC[C@H](C(=O)Nc2cc(-c3cnn4c3CCCC4)ccn2)C1 , thanks.
Given back: 33 µL/min/1e6 cells

Asked: Requested field: hepatocyte CLint. Item: CC(=O)N[C@@H]1CCC[C@H](C(=O)Nc2cc(-c3cnn4c3COCC4)c(Cl)cn2)C1
Given back: 18 µL/min/1e6 cells

Asked: # hepatocyte CLint lookup, item CC(=O)N[C@@H]1CCC[C@H](C(=O)Nc2cc(-c3cnn4c3CCC4)c(Cl)cn2)C1
Given back: 72 µL/min/1e6 cells

Asked: // query hepatocyte CLint value for entry CC(=O)N[C@@H]1CCC[C@H](C(=O)Nc2cc(-c3cnn4c3CC(C)(C)C4)c(Cl)cn2)C1 [ZEMIRCICLIB]
Given back: 73 µL/min/1e6 cells

Asked: If you can, please state the reported hepatocyte CLint value of CC(=O)N[C@@H]1CCC[C@H](C(=O)Nc2cc(-c3cnn4c3CN(C)CC4)c(Cl)cn2)C1 .
Given back: 7.7 µL/min/1e6 cells

Asked: Reported hepatocyte CLint for CC(=O)N[C@@H]1CCC[C@H](C(=O)Nc2cc(-c3cnn4c3CCCCC4)c(Cl)cn2)C1 : what is it?
Given back: 51 µL/min/1e6 cells

Asked: Endpoint output: hepatocyte CLint of CC(=O)N[C@@H]1CCC[C@H](C(=O)Nc2cc(-c3cnn4c3CC(C)(C)C4)c(F)cn2)C1 . Value?
Given back: 81 µL/min/1e6 cells

Asked: Please report the recorded hepatocyte CLint for CC(=O)N[C@@H]1CCC[C@H](C(=O)Nc2cc(-c3cnn4c3CC(C)(C)CC4)c(F)cn2)C1 .
Given back: 42 µL/min/1e6 cells

Asked: Find the recorded hepatocyte CLint belonging to CC(=O)N[C@@H]1CCC[C@H](C(=O)Nc2cc(-c3cnn4c3NCCC4)c(Cl)cn2)C1 and report it.
Given back: 10 µL/min/1e6 cells

Asked: Find the recorded hepatocyte CLint belonging to CC(=O)N[C@@H]1CCC[C@H](C(=O)Nc2cc(-c3cnn4c3CCCC4)c(F)cn2)C1 and report it.
Given back: 73 µL/min/1e6 cells

Asked: Any idea what hepatocyte CLint was measured for CC(=O)N[C@@H]1CCC[C@H](C(=O)Nc2cc(-c3cnn4c3OCCC4)c(Cl)cn2)C1 ?
Given back: 34 µL/min/1e6 cells

Asked: Query (molecule): CC(=O)N[C@@H]1CCC[C@H](C(=O)Nc2cc(-c3cnc4n3CC(C)(C)C4)c(Cl)cn2)C1 ; field requested: hepatocyte CLint
Given back: 28 µL/min/1e6 cells

Asked: So what does the record say about hepatocyte CLint for CC(=O)N[C@@H]1CCC[C@H](C(=O)Nc2cc(-c3cnn4c3CC(C)(C)CC4)ccn2)C1 ?
Given back: 35 µL/min/1e6 cells

Asked: Need hepatocyte CLint of CC(=O)N[C@@H]1CCC[C@H](C(=O)Nc2cc(-c3cnn4c3CCCC4)c(Cl)cn2)C1 , thanks.
Given back: 46 µL/min/1e6 cells

Asked: Report hepatocyte CLint for CC(=O)N[C@@H]1CCC[C@H](C(=O)Nc2cc(-c3cnn4c3CC(C)(C)C4)ccn2)C1 please.
Given back: 45 µL/min/1e6 cells

Asked: Quick one: hepatocyte CLint for CC(=O)N[C@@H]1CCC[C@H](C(=O)Nc2cc(-c3cnn4c3CC(C)(C)C4)c(C)cn2)C1 ?
Given back: 53 µL/min/1e6 cells

Asked: Quick check: hepatocyte CLint of CC(=O)N[C@@H]1CCC[C@H](C(=O)Nc2cc(-c3cnn4c3CC(C)(C)C4)c(C#N)cn2)C1 ?
Given back: 47 µL/min/1e6 cells

* * *

method_description: Clearance in mouse plasma at […], iv formulated as solution
Type: ADME, organism-based
measurement_parameters: dose 4.8 µmol/kg
measure: clearance (mL/min/kg)
Dear colleague, please return just the value in mL/min/kg, with no unit written.

Asked: Return reported clearance; argument: CC(=O)N[C@@H]1CCC[C@H](C(=O)Nc2cc(-c3cnn4c3CCCC4)c(Cl)cn2)C1
Given back: 65

* * *

assayed_target: Cyclin-dependent kinase 9 (Homo sapiens)
Sequence (P50750 whole entry): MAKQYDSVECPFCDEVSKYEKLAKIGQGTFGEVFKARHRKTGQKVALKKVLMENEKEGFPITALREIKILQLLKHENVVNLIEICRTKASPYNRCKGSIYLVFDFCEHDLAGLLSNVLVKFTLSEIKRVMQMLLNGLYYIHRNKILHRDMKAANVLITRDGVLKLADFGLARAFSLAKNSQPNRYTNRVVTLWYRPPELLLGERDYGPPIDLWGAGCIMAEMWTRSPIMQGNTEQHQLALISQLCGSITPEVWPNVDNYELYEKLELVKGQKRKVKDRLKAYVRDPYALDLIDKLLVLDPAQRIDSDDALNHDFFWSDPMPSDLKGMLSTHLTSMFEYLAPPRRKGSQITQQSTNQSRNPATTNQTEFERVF
method_description: Inhibition of CDK9 in human MCF7 cells assessed as reduction in RNA Polymerase 2 CTD phosphorylation at Ser2 residues measured after 6 hrs by immunofluorescence assay
Assay type: cell-based
So I've got a bunch of compounds here, and I need their IC50 values.

Asked: Query: IC50; subject: CC(=O)N[C@@H]1CCC[C@H](C(=O)Nc2cc(-c3cnc4n3CCCC4)c(Cl)cn2)C1
Given back: 1200 nM

Asked: Look up IC50: CC(=O)N[C@@H]1CCC[C@H](C(=O)Nc2cc(-c3cnn4c3NCCC4)c(Cl)cn2)C1
Given back: 860 nM

Asked: Record request: IC50 value, item CC(=O)N[C@@H]1CCC[C@H](C(=O)Nc2cc(-c3cnc(C)n3C(C)C)ccn2)C1
Given back: 920 nM

Asked: Given the compound CC(=O)N[C@@H]1CCC[C@H](C(=O)Nc2cc(-c3cnn4c3CCCC4O)c(Cl)cn2)C1 (stereo partly drawn) , what is its reported IC50?
Given back: 720 nM

Asked: // IC50 lookup, key: CC(=O)N[C@@H]1CCC[C@H](C(=O)Nc2cc(-c3cnn4c3CC(C)C4)c(Cl)cn2)C1 (stereo in doubt; 27)
Given back: 77 nM

Asked: GET /values?readout=IC50&item= CC(=O)N[C@@H]1CCC[C@H](C(=O)Nc2cc(-c3cnn4c3CC(C)(C)CC4)ccn2)C1
Given back: 48 nM

Asked: Value lookup for IC50; key = CC(=O)N[C@@H]1CCC[C@H](C(=O)Nc2cc(-c3nnn4c3CCCC4)c(Cl)cn2)C1
Given back: > 2600 nM

Asked: For the compound CC(=O)N[C@@H]1CCC[C@H](C(=O)Nc2cc(-c3cnn4c3COCC4)c(Cl)cn2)C1 , what IC50 is on record?
Given back: 2100 nM
